Kindly state log10 of IC50 for each of the entries shown.
# SYSTEM NAME: recombinant human dopamine transporter (Homo sapiens, UniProt Q01959)
# Construct: expressed in transfected cells; host or cells: CHO-K1 or HEK293
# Sequence (Q01959 whole entry): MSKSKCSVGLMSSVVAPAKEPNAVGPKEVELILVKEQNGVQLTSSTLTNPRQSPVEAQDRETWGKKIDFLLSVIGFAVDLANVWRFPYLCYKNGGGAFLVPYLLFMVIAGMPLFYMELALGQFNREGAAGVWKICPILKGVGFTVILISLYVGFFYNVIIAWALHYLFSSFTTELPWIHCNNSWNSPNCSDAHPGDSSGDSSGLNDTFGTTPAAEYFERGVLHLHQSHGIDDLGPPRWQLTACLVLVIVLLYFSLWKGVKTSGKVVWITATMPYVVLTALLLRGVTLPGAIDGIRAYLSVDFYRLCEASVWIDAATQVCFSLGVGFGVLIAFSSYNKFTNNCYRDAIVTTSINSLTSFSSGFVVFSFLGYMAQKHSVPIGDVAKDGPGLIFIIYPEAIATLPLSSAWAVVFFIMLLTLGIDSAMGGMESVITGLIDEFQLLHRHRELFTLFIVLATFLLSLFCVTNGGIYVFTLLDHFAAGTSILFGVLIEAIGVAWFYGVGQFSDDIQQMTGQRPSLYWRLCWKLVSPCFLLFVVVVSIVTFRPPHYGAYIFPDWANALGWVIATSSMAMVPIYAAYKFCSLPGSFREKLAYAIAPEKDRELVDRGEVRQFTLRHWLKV
# EXPERIMENT NOTES: Dopamine functional uptake assay for human reuptake transporter
# Assay type: cell-based
# CONDITION DESCRIPTION: [3H]dopamine uptake, CHO-K1 or HEK293 cells expressing human dopamine transporter; read-out: Human IC50 (nM) DAT
Use the decimal logarithm of IC50 (nM).

Query: log10 of IC50; subject: CN[C@@H]1Cc2cccc(OC)c2[C@H](c2ccc(Cl)c(Cl)c2)C1 (single isomer, unassigned) [Compound 32b.2]
2.70

Form field: reported log10 of IC50 of CN[C@H]1Cc2ccc(OC)cc2[C@@H](c2ccc(Cl)c(Cl)c2)C1 (single isomer, unassigned) [Compound 32a.4]
3.23

Which log10 of IC50 is listed for CN[C@H]1Cc2ccccc2[C@H](c2ccc(Cl)c(Cl)c2)C1 (single isomer, unassigned) [Compound 7b] ?
1.79

What does the data say about its log10 of IC50? Entry: CC([C@@H]1Cc2ccccc2[C@H](c2ccc(Cl)c(Cl)c2)C1)N(C)C (single isomer, unassigned) [Compound 53]
2.69

Bench note: what log10 of IC50 did CN(C)C1CC(c2ccc(Cl)c(Cl)c2)c2ccccc2C1O (single isomer, unassigned) [Compound 23b] show?
1.83

Which log10 of IC50 is reported for this compound? CN(C)[C@@H]1c2ccccc2CC[C@@H]1c1ccc(Cl)c(Cl)c1 (single isomer, unassigned) [Compound 41a]
3.36

###

So I've got a bunch of molecules here, and I need their log10 IC50 values.
# SYSTEM NAME: recombinant human serotonin transporter (Homo sapiens)
# Construct: expressed in transfected cells; host or cells: HEK-293
# Sequence (P31645 whole entry): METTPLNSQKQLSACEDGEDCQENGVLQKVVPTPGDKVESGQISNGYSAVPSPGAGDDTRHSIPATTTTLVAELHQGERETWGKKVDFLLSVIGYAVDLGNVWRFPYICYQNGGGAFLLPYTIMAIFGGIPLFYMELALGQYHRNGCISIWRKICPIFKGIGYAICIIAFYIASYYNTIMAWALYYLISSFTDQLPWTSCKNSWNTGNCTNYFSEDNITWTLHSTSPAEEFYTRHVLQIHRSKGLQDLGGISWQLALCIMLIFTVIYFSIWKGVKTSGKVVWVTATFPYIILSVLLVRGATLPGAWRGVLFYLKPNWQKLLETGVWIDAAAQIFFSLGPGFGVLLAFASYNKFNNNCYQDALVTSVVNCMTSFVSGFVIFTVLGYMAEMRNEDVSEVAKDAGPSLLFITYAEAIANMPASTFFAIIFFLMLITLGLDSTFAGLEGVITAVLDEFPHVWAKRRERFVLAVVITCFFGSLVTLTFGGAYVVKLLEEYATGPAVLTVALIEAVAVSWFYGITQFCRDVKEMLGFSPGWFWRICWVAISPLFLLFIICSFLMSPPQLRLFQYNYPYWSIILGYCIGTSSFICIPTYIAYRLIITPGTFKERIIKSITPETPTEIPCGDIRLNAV
# EXPERIMENT NOTES: Serotonin functional uptake assay for human reuptake transporter
# Format: cell-based
# CONDITION DESCRIPTION: [3H]serotonin uptake, HEK-293 cells expressing human serotonin transporter; read-out: Human IC50 (nM) SERT
All values: log10 IC50 [nM].

Using the record for COc1ccc2c(c1)C[C@H](N(C)C)C[C@@H]2c1ccc(Cl)c(Cl)c1 (single isomer, unassigned) [Compound 33c.3] , report its log10 IC50.
2.79

Could you tell me which log10 IC50 is on file for COc1ccc2c(c1)C[C@H](N(C)C)C[C@@H]2c1ccc(Cl)c(Cl)c1 (single isomer, unassigned) [Compound 33c.2] ?
0.90

Can you look up the measured log10 IC50 of COc1ccc2c(c1)C(c1ccc(Cl)c(Cl)c1)CC(N(C)C)C2 (single isomer, unassigned) [Compound 33a.2] for me?
2.19

Look at this molecule and give its reported log10 IC50. CNC1c2ccccc2CCC1c1ccc(Cl)c(Cl)c1 (single isomer, unassigned) [Compound 40b]
3.89

State the recorded log10 IC50 for this entry: CN[C@H]1Cc2cc(OC)ccc2[C@@H](c2ccc(Cl)c(Cl)c2)C1 (single isomer, unassigned) [Compound 32c.2]
1.46

Need log10 IC50, item CN(C)C1CC(c2ccc(Cl)c(Cl)c2)c2ccccc2C1O (single isomer, unassigned) [Compound 23c]
3.37

Endpoint output: log10 IC50 of COc1ccc2c(c1)C(c1ccc(Cl)c(Cl)c1)CC(N(C)C)C2 (single isomer, unassigned) [Compound 33a.4] . Value?
2.91

Given the molecule CN(C)[C@H]1CCc2ccccc2[C@H]1c1ccc(Cl)c(Cl)c1 (single isomer, unassigned) [Compound 37a] , what is its reported log10 IC50?
2.55

Return reported log10 IC50; argument: CN[C@H]1Cc2cc(OC)ccc2[C@@H](c2ccc(Cl)c(Cl)c2)C1 (stereo in doubt) [Compound 32c.3]
2.02

Sample CNC1c2ccccc2CCC1c1ccc(Cl)c(Cl)c1 (single isomer, unassigned) [Compound 40a] — what was its log10 IC50?
3.39
